biological target: cAMP-dependent protein kinase (PKA) (Homo sapiens, UniProt P22694+P17612+P22612); test: Inhibition of PKA; format: protein assay
measured parameter: IC50 (µM)

Some solved entries appear below for comparison.
# line notation, units label, IC50
data = [
    ("N[C@H](COc1cncc(-c2ccc3[nH]nc(C(F)(F)F)c3c2)c1)Cc1c[nH]c2ccccc12", "µM", 0.016),
    ("Cc1n[nH]c2cnc(-c3cncc(OC[C@@H](N)Cc4c[nH]c5ccccc45)c3)cc12", "µM", 0.015),
]

P. C=Cc1n[nH]c2cnc(-c3cncc(OC[C@@H](N)Cc4ccccc4)c3)cc12
Q. N[C@H](COc1cncc(-c2cc3c(Cl)n[nH]c3cn2)c1)Cc1ccccc1
R. N[C@H](COc1cncc(-c2cc3c(-c4ccccc4)n[nH]c3cn2)c1)Cc1ccccc1
Sort (3 compounds) by IC50: min first. Could you list the labels in the order requested?
P, Q, R
